- Tested on: E. coli
- Construct: DSM 301
- assay.procedure: microbe, parasite or virus in culture
- Set-up: Microbial growth in liquid dilution assay, OD600 relative to DMSO control
- condition.description: Escherichia coli; estimated IC50; read-out: E. coli, IC50 (µM) estimate
Recorded IC50 by entry

smiles.data: O=C(c1ccc(-c2ccc(F)cc2)o1)N1C[C@H]2CC[C@](O)(c3ccc(F)cc3)[C@H]2C1
IC50: > 30 µM

Now let's try a different one.
Enquiry: Could you share which IC50 value was measured for "O=C(N/N=C\c1ccc([N+](=O)[O-])o1)c1nc(-c2ccccc2)cc(-c2ccccc2)n1" ?
Return: > 30 µM

###

- assay.procedure: in vitro
- condition.description: human, hela cells, % viability
Below, each entry is listed alongside its reported viability at 28.5 h, 10 µM.
Field: value (include unit after the number)

Study these solved cases before continuing.
molecule: CN(C)CCN1CCN(c2cccc(-c3ccncc3)n2)CC1 [CBK037029]
viability at 28.5 h, 10 µM: 95.9%

molecule: O=C(Nc1cccc(N2CCNCC2)c1)c1ccnc2ccccc12 [CBK029416T]
viability at 28.5 h, 10 µM: 95.5%

molecule: Clc1ccc(N2CCN(c3cnc4ccccc4n3)CC2)cc1Cl [CBK066903]
viability at 28.5 h, 10 µM: 97.8%

molecule: CCOC(=O)C1CCN(S(=O)(=O)c2ccc(Cl)s2)CC1 [CBK096109]
viability at 28.5 h, 10 µM: 94.9%

Consider the additional molecule presented here.
Enquiry: Query (molecule): O=C(Nc1ccc(S(=O)(=O)N2CCCCCC2)cc1)c1ccc(NS(=O)(=O)c2ccccc2)cc1 [CBK268018] ; field requested: viability at 28.5 h, 10 µM
Return: 90.4%

###

- assay.procedure: in vitro
- condition.description: human, hela cells, % viability
readout: viability at 28.5 h, 10 µM (%)
Write it as a number; the unit % goes unstated.

compound: CC(=O)Nc1cccc(-n2cnnc2SCC2CCOCC2)c1 [CBK306354]
readout: viability at 28.5 h, 10 µM
uom: %
value: 92
//
compound: NS(=O)(=O)c1ccc(CCNC(=O)c2ccc(C#Cc3ccccc3)cc2)cc1 [CBK263089]
readout: viability at 28.5 h, 10 µM
uom: %
value: 95.9
//
compound: COc1ccc(CSc2nc(N)c3c4c(sc3n2)CCCC4)cc1 [CBK131876]
readout: viability at 28.5 h, 10 µM
uom: %
value: 85.8
//
compound: CCN(C(=O)c1cn2c3c(cccc3c1=O)CC2)C1CCOC(C)(C)C1 (stereo not drawn) [CBK307332]
readout: viability at 28.5 h, 10 µM
uom: %
value: 90.1
//
compound: CN(C)c1ccc(NC(=O)CN2C(=O)[C@H]3CCCN3c3ncccc32)cc1 [CBK286202]
readout: viability at 28.5 h, 10 µM
uom: %
value: 118

Enquiry: Query (compound): Cc1ccc(-c2n[nH]c(=O)o2)cc1Br [CBK288443] ; field requested: viability at 28.5 h, 10 µM
Return: 85.9

Enquiry: Quick one: viability at 28.5 h, 10 µM of OC1CCC(Nc2cncc(-c3cccc4ccccc34)n2)CC1 (stereo not drawn) [CBK065902] ?
Return: 90.2

Enquiry: Which viability at 28.5 h, 10 µM is reported for this compound? Cc1cnc(NC(=O)C(C)Oc2ccccc2)s1 (stereo not drawn) [CBK288250]
Return: 108

Enquiry: Entry under review: O=C(NCCc1cccs1)Nc1ccc(Cl)c(C(F)(F)F)c1 [CBK043775] . Reported viability at 28.5 h, 10 µM?
Return: 97.6

Enquiry: I have this compound here, CC(C)(C)OC(=O)N1CCC(Oc2ccc(CN)cc2)CC1 [CBK004131] , and I need its recorded viability at 28.5 h, 10 µM.
Return: 81.7

Enquiry: # lookup: viability at 28.5 h, 10 µM of CN(CCN1CCCCC1)C(=O)CCc1cn(C)c2ccccc12 [CBK281906]
Return: 94.3

Enquiry: Quick one: viability at 28.5 h, 10 µM for COc1cccc2sc(Nc3nc(C)c(C(C)=O)s3)nc12 [CBK287471] ?
Return: 109

Enquiry: viability at 28.5 h, 10 µM for Cc1[nH]nc(-c2ccc(OCc3cnn(-c4ccccc4)c3)cc2O)c1Oc1ccc(Cl)cc1 [CBK264939] ?
Return: 86.8

Enquiry: Please give the measured viability at 28.5 h, 10 µM for this compound: O=C(O)c1cccc(NS(=O)(=O)c2cccc([N+](=O)[O-])c2)c1 [CBK155711]
Return: 99.2

Enquiry: Look up viability at 28.5 h, 10 µM for this compound: O=C(CN1CCN(Cc2ccc3c(c2)OCO3)CC1)Nc1ccc(Oc2ccccc2)cc1 [CBK265864]
Return: 94

Enquiry: What measured viability at 28.5 h, 10 µM goes with Cc1ccc(Cn2cc(Br)c(NC(=O)C(=O)O)n2)cc1 [CBK288529] ?
Return: 96.9

Enquiry: Item O=C(CCN1C(=O)c2ccccc2C1=O)N(CCO)Cc1ccccc1 [CBK265565] has what recorded viability at 28.5 h, 10 µM?
Return: 110

Enquiry: Recorded viability at 28.5 h, 10 µM of Brc1ccc2nc(NCc3ccccn3)nc(-c3ccccc3)c2c1 [CBK266736] , please.
Return: 89.3

Enquiry: Fill blank: measured viability at 28.5 h, 10 µM of the compound Cc1ccc2c(c1)CCCN2C(=O)c1csc2c(C(F)(F)F)cc(N3CCOCC3)nc12 [CBK028367] is ____.
Return: 116

Enquiry: Quick one: viability at 28.5 h, 10 µM for CCP(CC)c1ccc(C(=O)O)cc1 [CBK019342B] ?
Return: 91.1

Enquiry: Endpoint output: viability at 28.5 h, 10 µM of CC(C)(O)C#Cc1ccc(C(=O)NCCc2ccc(S(N)(=O)=O)cc2)cc1 [CBK263110] . Value?
Return: 98.2

Enquiry: GET /values?readout=viability at 28.5 h, 10 µM&item= Cc1nn(CCC#N)c(C)c1CCC(=O)NCc1ccccn1 [CBK305693]
Return: 82.5

###

Overview of recorded viability at 28.5 h, 10 µM for various compounds
- assay.procedure: in vitro
- condition.description: human, hela cells, % viability
# unit: % | format: bare number

Completed entries (count: 6):
compound: c1cnc(-c2nnn[nH]2)c(-c2ccc(COc3ccc4c(c3)OCO4)cc2)n1 [CBK050812]
readout: viability at 28.5 h, 10 µM
value: 107
--
compound: CCNc1cc2ccccc2c(-c2cc(C(C)C)ccc2OC)n1 [CBK073777]
readout: viability at 28.5 h, 10 µM
value: 110
--
compound: N#CC(CC(=O)O)C(Cc1ccccc1)c1ccccc1 (stereo not drawn) [CBK286837]
readout: viability at 28.5 h, 10 µM
value: 107
--
compound: O=C(COc1ccc(F)cc1)N1CCN(c2ncccn2)CC1 [CBK144499]
readout: viability at 28.5 h, 10 µM
value: 94.1
--
compound: Cc1nc2sccn2c1-c1csc(Nc2cccc(C(=O)O)c2)n1 [CBK263291B]
readout: viability at 28.5 h, 10 µM
value: 91.9
--
compound: c1cncc(-c2ccc(N3CCN(CCN4CCCC4)CC3)nc2)c1 [CBK037661]
readout: viability at 28.5 h, 10 µM
value: 108

Enquiry: // query viability at 28.5 h, 10 µM value for entry O=C(CCOc1ccccc1F)Nc1cnc(-c2ccc(F)cc2)c(-c2ccsc2)n1 [CBK036897]
Return: 99.7

Enquiry: Quick one: viability at 28.5 h, 10 µM of COc1cc(NC(=O)Cn2c(-c3cncs3)nc3ccccc32)cc(OC)c1OC [CBK267640] ?
Return: 97.2

Enquiry: Requested read-out: viability at 28.5 h, 10 µM. Entry: Oc1cccc(OCCOc2nc3cc(Cl)c(Cl)cc3nc2N2CCCC2)c1 [CBK115778]
Return: 100

###

List of viability at 28.5 h, 10 µM values.
- assay.procedure: in vitro
- condition.description: human, hela cells, % viability
Value expressed in %; do not type the unit.

Use these answered entries as a reference point.
molecule: O=C(NCCN1CCOCC1)c1cccc(S(=O)(=O)N2CCCCCC2)c1
viability at 28.5 h, 10 µM, %: 97.3

molecule: Cc1cnc(CNC(=O)N2CCN(C3CCN(C)CC3)CC2)cn1
viability at 28.5 h, 10 µM, %: 91.3

Enquiry: Which viability at 28.5 h, 10 µM value is on record for "O=C(Nc1cccc(Cl)c1Cl)c1cnc2n(c1=O)CCS2" ?
Return: 95.1

Enquiry: Param item = Cc1c(C(=O)Nc2ccc(S(=O)(=O)NCC3CCCO3)cc2)cccc1[N+](=O)[O-] (centres unmarked) ; retrieve measured viability at 28.5 h, 10 µM.
Return: 94.5

Enquiry: Fill blank: measured viability at 28.5 h, 10 µM of the molecule NCCc1nc2ccccc2[nH]1 [CBK278287C] is ____.
Return: 91.8

Reference source: paper PMC12040169
